Reference for the values: BindingDB's records for doi:10.1021/co200147y

Measurement Target: Cannabinoid receptor 1 (Homo sapiens, UniProt P21554)
Sequence (P21554 whole entry): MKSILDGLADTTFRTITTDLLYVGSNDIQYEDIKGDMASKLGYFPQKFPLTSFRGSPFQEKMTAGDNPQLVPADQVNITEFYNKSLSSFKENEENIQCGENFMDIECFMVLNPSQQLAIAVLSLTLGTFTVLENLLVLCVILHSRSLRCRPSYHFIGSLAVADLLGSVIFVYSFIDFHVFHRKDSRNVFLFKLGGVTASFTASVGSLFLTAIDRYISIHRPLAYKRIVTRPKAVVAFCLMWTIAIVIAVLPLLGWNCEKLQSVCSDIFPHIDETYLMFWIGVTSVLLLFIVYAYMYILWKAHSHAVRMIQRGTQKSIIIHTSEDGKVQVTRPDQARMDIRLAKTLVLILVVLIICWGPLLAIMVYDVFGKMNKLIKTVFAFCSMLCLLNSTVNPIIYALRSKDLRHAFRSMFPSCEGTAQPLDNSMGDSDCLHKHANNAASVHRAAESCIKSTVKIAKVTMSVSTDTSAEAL
Reported pIC50 values for a set of compounds
# pIC50 is unitless: minus log10 of the molar concentration; print number only

Example entries begin here.
>>> df
                                   compound  measured_quantity  quantitative_result
0  Cc1cccc(-n2ncc(C(=O)NCC3CC3)c2-c2ccc(-c3ccccc3)cc2)c1 [hCB1 Inhibitor, 2{5,1,7}]              pIC50                 6.21
1  CCCCNC(=O)c1cnn(-c2ccccc2C)c1-c1ccc(-c2ccccc2)cc1 [hCB1 Inhibitor, 2{6,1,6}]              pIC50                 5.55
2  CCCCNC(=O)c1cnn(-c2cccc(C)c2)c1-c1ccc(-c2ccccc2)cc1 [hCB1 Inhibitor, 2{6,1,7}]              pIC50                 5.57

Task item: Which pIC50 is listed for Cc1ccccc1-n1ncc(C(=O)NCC2CC2)c1-c1ccc(-c2ccccc2)cc1 [hCB1 Inhibitor, 2{5,1,6}] ?
Reply: 6.41

Task item: Which pIC50 is listed for O=C(NCCCc1ccccc1)c1cnn(-c2cccc3ccccc23)c1-c1ccc(-c2ccccc2)cc1 [hCB1 Inhibitor, 2{1,1,3}] ?
Reply: 7.05

Task item: Which pIC50 is listed for Cc1cccc(-n2ncc(C(=O)NCCCc3ccccc3)c2-c2ccc(-c3ccccc3)cc2)c1 [hCB1 Inhibitor, 2{1,1,7}] ?
Reply: 6.70
